Reference for the values: ChEMBL document CHEMBL4706654

# System: U-87 MG
# test.name: Antiproliferative activity against human U-87 MG cells assessed as reduction in cell viability measured after 24 to 48 hrs by MTT assay
# Type: functional, cell-based, U-87MG ATCC
pIC50: −log10 of the molar value.
quantity: pIC50

Cc1nc(-c2ccccc2)sc1C(=O)CSc1nc(-c2ccc(Cl)c(Cl)c2)c(C#N)c(=O)[nH]1
4.19
COc1ccc(-c2nc(C)c(C(=O)CSc3nc(-c4ccc(OC)cc4)c(C#N)c(=O)[nH]3)s2)cc1
4.60
Cc1nc(-c2ccc(Cl)cc2)sc1C(=O)CSc1nc(N)c(C#N)c(-c2ccc(Cl)cc2)n1
5.47
COc1ccc(-c2nc(C)c(C(=O)CSc3nc(-c4ccc(Cl)cc4)c(C#N)c(=O)[nH]3)s2)cc1
4.34
COc1cccc(-c2nc(SCC(=O)c3sc(-c4ccccc4)nc3C)[nH]c(=O)c2C#N)c1
4.22
Cc1nc(-c2ccccc2)sc1C(=O)CSc1nc(-c2ccc3c(c2)OCO3)c(C#N)c(=O)[nH]1
4.47

[1] COc1ccc(-c2nc(C)c(C(=O)CSc3nc(-c4ccc(Cl)c(Cl)c4)c(C#N)c(=O)[nH]3)s2)cc1
[2] COc1ccc(-c2nc(SCC(=O)c3sc(-c4ccc(Cl)cc4)nc3C)[nH]c(=O)c2C#N)cc1OC
[3] COc1ccc(-c2nc(C)c(C(=O)CSc3nc(N)c(C#N)c(-c4ccc(OC)cc4)n3)s2)cc1
[4] COc1ccc(-c2nc(SCC(=O)c3sc(-c4ccc(Cl)cc4)nc3C)nc(N)c2C#N)cc1
Rank ascending by pIC50. Return value: ordered labels per request.
1, 2, 4, 3
(1: 4.16, 2: 4.41, 4: 4.98, 3: 5.81)

[A] Cc1nc(-c2ccc(Cl)cc2)sc1C(=O)CSc1nc(-c2ccc(Cl)cc2)c(C#N)c(=O)[nH]1
[B] Cc1nc(-c2ccc(Cl)cc2)sc1C(=O)CSc1nc(-c2ccccc2)c(C#N)c(=O)[nH]1
[C] COc1ccc(-c2nc(SCC(=O)c3sc(-c4ccccc4)nc3C)[nH]c(=O)c2C#N)cc1OC
Order the records so the highest pIC50 appears first and the lowest last. // respond by listing labels in the order requested
C, B, A
(C: 4.81, B: 4.56, A: 4.28)

[1] Cc1nc(-c2ccc(Cl)cc2)sc1C(=O)CSc1nc(-c2ccc3c(c2)OCO3)c(C#N)c(=O)[nH]1
[2] COc1ccc(-c2nc(SCC(=O)c3sc(-c4ccccc4)nc3C)nc(N)c2C#N)cc1
Returns the identifier with the smallest measured pIC50 among 1 and 2 . Lab log: write the label of the selected item as the result.
1

[A] COc1ccc(-c2nc(C)c(C(=O)CSc3nc(-c4ccc5c(c4)OCO5)c(C#N)c(=O)[nH]3)s2)cc1
[B] Cc1nc(-c2ccccc2)sc1C(=O)CSc1nc(-c2cccc(Cl)c2)c(C#N)c(=O)[nH]1
Input pair: A , B . Output: entry with lower pIC50. Record your answer as the label of the chosen record.
A
(A: 4.19, B: 4.55)

---

Catalogue of viability at 5 µM readings, one per entry.
# Tested on: U-87 MG
# test.name: Antiproliferative activity against human U-87 MG cells assessed as cell viability at 5 uM measured after 24 to 48 hrs by MTT assay relative to control
# Assay type: functional, U-87MG ATCC
# condition.info: time 24-48 hrs, read-out: Activity
Just the number please, in %, no unit attached.

Illustrative cases are given below, each with its answer.
COc1ccc(-c2nc(SCC(=O)c3sc(-c4ccc(Cl)cc4)nc3C)[nH]c(=O)c2C#N)cc1
92.1
COc1ccc(-c2nc(SCC(=O)c3sc(-c4ccccc4)nc3C)[nH]c(=O)c2C#N)cc1OC
80.8
COc1ccc(-c2nc(C)c(C(=O)CSc3nc(-c4cccc(Cl)c4)c(C#N)c(=O)[nH]3)s2)cc1
95.7
COc1ccc(-c2nc(SCC(=O)c3sc(-c4ccc(Cl)cc4)nc3C)nc(N)c2C#N)cc1
69.7
COc1ccc(-c2nc(C)c(C(=O)CSc3nc(N)c(C#N)c(-c4ccccc4)n3)s2)cc1
61.8

Which measured viability at 5 µM belongs to Cc1nc(-c2ccccc2)sc1C(=O)CSc1nc(-c2cccc(Cl)c2)c(C#N)c(=O)[nH]1 , tested on U-87 MG?
86.9

What do we get for Cc1nc(-c2ccccc2)sc1C(=O)CSc1nc(N)c(C#N)c(-c2ccc(Cl)cc2)n1 ?
62.9

Another compound to check: Cc1nc(-c2ccc(Cl)cc2)sc1C(=O)CSc1nc(-c2ccccc2)c(C#N)c(=O)[nH]1
88.9

Could you do the same for COc1cccc(-c2nc(SCC(=O)c3sc(-c4ccc(Cl)cc4)nc3C)[nH]c(=O)c2C#N)c1 , please?
96.6
